Reported IC50 against Aldo-keto reductase family 1 member B1 (Bos taurus, UniProt P16116), gathered from multiple publications, appears below.
outcome measure: IC50 (nM)

molecule | obs value
O=C1CN(S(=O)(=O)c2cc3cc(Cl)ccc3s2)C(=O)N1 | 240

1 = CN(CC(=O)O)S(=O)(=O)c1ccc2oc3ccc(S(=O)(=O)N(C)CC(=O)O)cc3c(=O)c2c1
2 = CC(COc1ccc(CC2SC(=O)NC2=O)cc1)NCC(O)COc1ccc(-c2ccccc2)cc1 (stereo not drawn)
// query Compare the recorded IC50 of 1 and 2 ; state which is larger. Identify your selection by its label.
// result 2

1 = CC(COc1ccc(CC2SC(=O)NC2=O)cc1)N1CC(COCc2ccccc2)OC1=O (stereo not drawn)
2 = CC(COc1ccc(CC2SC(=O)NC2=O)cc1)N1CC(COc2cccc(Cl)c2)OC1=O (stereo not drawn)
3 = O=C1CN(S(=O)(=O)c2sc3c(F)cccc3c2Br)C(=O)N1
4 = O=C1NC(=O)C(Cc2ccc(OCc3nc4ncccc4[nH]3)cc2)S1 (stereo not drawn)
// query Put the items in sequence by IC50, from largest down. Respond with an ordered listing of the labels, as requested.
// result 4, 1, 2, 3
(4: 6770 nM, 1: 3610 nM, 2: 224 nM, 3: 85 nM)

I = O=C1CN(S(=O)(=O)c2cc3c(I)cccc3o2)C(=O)N1
II = Cc1ccnc2c1nc(COc1ccc(CC3SC(=O)NC3=O)cc1)n2C (stereo not drawn)
// query Between the entries labeled I and II , whose measured IC50 is lower? Identify your selection by its label.
// result I
(I: 240 nM, II: 9670 nM)

====

Reported IC50 against Aldo-keto reductase family 1 member B1 (Bos taurus, UniProt P16116), gathered from multiple publications, appears below.
outcome measure: IC50 (nM)

compound | outcome measure | quantity unit | obs value
CC(COc1ccc(CC2SC(=O)NC2=O)cc1)N1CC(COCCCCCCc2ccccc2)OC1=O (stereo not drawn) | IC50 | nM | 3510
Cn1c(COc2ccc(CC3SC(=O)NC3=O)cc2)nc2cc(Cl)cnc21 (stereo not drawn) | IC50 | nM | 3230
O=C1NC(=O)C(Cc2ccc(OCCCCN3CC(COc4cccc(Cl)c4)OC3=O)cc2)S1 (stereo not drawn) | IC50 | nM | 1980
CC(COc1ccc(CC2SC(=O)NC2=O)cc1)N1CC(CSc2ccccc2)OC1=O (stereo not drawn) | IC50 | nM | 1500
O=C1NC(=O)C2(CCOc3c(-c4ccccc4)cccc32)N1 (stereo not drawn) | IC50 | nM | 1000
Cc1ccc2cc(S(=O)(=O)N3CC(=O)NC3=O)ccc2c1[N+](=O)[O-] | IC50 | nM | 100

I = O=C1CN(S(=O)(=O)c2cc3cc(F)ccc3s2)C(=O)N1
II = CC(COc1ccc(CC2SC(=O)NC2=O)cc1)NCC(O)COCCCCCc1ccccc1 (stereo not drawn)
// query Between the entries labeled I and II , whose measured IC50 is lower? Identify your selection by its label.
// result I

====

pIC50: −log10 of the molar value.
Reported pIC50 against Aldo-keto reductase family 1 member B1 (Bos taurus, UniProt P16116), gathered from multiple publications, appears below.
outcome measure: pIC50

Consider the worked cases shown below.
compound | experimental system | pIC50
O=C1CN(S(=O)(=O)c2cc3ccc(Cl)cc3s2)C(=O)N1 | Aldo-keto reductase family 1 member B1 (Bos taurus, UniProt P16116) | 6.57
CC(COc1ccc(CC2SC(=O)NC2=O)cc1)NCC(O)COCCCCCCCCc1ccccc1 (centres unmarked) | Aldo-keto reductase family 1 member B1 (Bos taurus, UniProt P16116) | 5.34
O=C1NC(=O)C2(CCOc3ccc(Oc4ccccc4)cc32)N1 (centres unmarked) | Aldo-keto reductase family 1 member B1 (Bos taurus, UniProt P16116) | 5.00
CCn1c(COc2ccc(CC3SC(=O)NC3=O)cc2)nc2cccnc21 (centres unmarked) | Aldo-keto reductase family 1 member B1 (Bos taurus, UniProt P16116) | 5.35

P = CC(COc1ccc(CC2SC(=O)NC2=O)cc1)N1CC(COc2cccc(N(C)C)c2)OC1=O (centres unmarked)
Q = CC(COc1ccc(CC2SC(=O)NC2=O)cc1)N1CCOC(COc2cccc(Cl)c2)C1 (centres unmarked)
// query Between the entries labeled P and Q , whose measured pIC50 is lower? Identify your selection by its label.
// result Q
